As shown below, each of these compounds has a reported MIC value.
Tested on: Klebsiella pneumoniae
protocol_summary: Antibacterial activity against extended-spectrum beta-lactamase deficient Klebsiella pneumoniae 12-4 after 18 hrs by CLSI broth microdilution method
Type: functional
assay_setup: 12-4, 18 h
# unit: µg/mL | format: bare number

[[record]]
compound = "N=C(c1ccc2cc(-c3ccc(-c4cc5ccc(C(=N)N6CC=CCC6)cc5[nH]4)cc3)[nH]c2c1)N1CC=CCC1"
assay_system = "Klebsiella pneumoniae"
uom = "µg/mL"
quantitative_result = 16

[[record]]
compound = "CN(C)C(=N)c1ccc2cc(-c3cnc(-c4cc5ccc(C(=N)N(C)C)cc5[nH]4)cn3)[nH]c2c1"
assay_system = "Klebsiella pneumoniae"
uom = "µg/mL"
quantitative_result = 16

[[record]]
compound = "N=C(c1ccc2cc(-c3ccc(-c4cc5ccc(C(=N)N6CCOCC6)cc5[nH]4)cc3)[nH]c2c1)N1CCOCC1"
assay_system = "Klebsiella pneumoniae"
uom = "µg/mL"
quantitative_result = 16


Now consider a different compound.
Data request: State the recorded MIC for this entry: `CN(C)CCCNC(=N)c1ccc2cc(-c3ccc(-c4cc5ccc(C(=N)NCCCN(C)C)cc5[nH]4)cc3)[nH]c2c1`
Data returned: 8

###

System: Enterococcus faecium
protocol_summary: Antibacterial activity against vancomycin-resistant Enterococcus faecium ATCC 700221 after 18 hrs by CLSI broth microdilution method
Format: functional
assay_setup: ATCC 700221, 18 h
readout_name: MIC (µg/mL)
# unit: µg/mL | format: bare number

Consider the worked cases shown below.
[[record]]
smiles_notation = "C[C@H]1COc2c(N3CCN(C)CC3)c(F)cc3c(=O)c(C(=O)O)cn1c23.C[C@H]1COc2c(N3CCN(C)CC3)c(F)cc3c(=O)c(C(=O)O)cn1c23.O"
readout_name = "MIC"
quantitative_result = 64

[[record]]
smiles_notation = "N=C(c1ccc2cc(-c3ccc(-c4cc5ccc(C(=N)N6CCC6)cc5[nH]4)cc3)[nH]c2c1)N1CCC1"
readout_name = "MIC"
quantitative_result = 1

[[record]]
smiles_notation = "CNC(=N)c1ccc2cc(-c3ccc(-c4cc5ccc(C(=N)NC)cc5[nH]4)cc3)[nH]c2c1"
readout_name = "MIC"
quantitative_result = 0.5

[[record]]
smiles_notation = "N=C(c1ccc2cc(-c3ccc(-c4cc5ccc(C(=N)N6CCOCC6)cc5[nH]4)cc3)[nH]c2c1)N1CCOCC1"
readout_name = "MIC"
quantitative_result = 4

[[record]]
smiles_notation = "CN1CCC2(CC1)CCN(C(=N)c1ccc3cc(-c4ccc(-c5cc6ccc(C(=N)N7CCC8(CCN(C)CC8)C7)cc6[nH]5)cc4)[nH]c3c1)C2"
readout_name = "MIC"
quantitative_result = 16

[[record]]
smiles_notation = "CN(C)CCNC(=N)c1ccc2cc(-c3ccc(-c4cc5ccc(C(=N)NCCN(C)C)cc5[nH]4)cc3)[nH]c2c1"
readout_name = "MIC"
quantitative_result = 4

[[record]]
smiles_notation = "CN(C)C(=N)c1ccc2cc(-c3ccc4ccc(-c5cc6ccc(C(=N)N(C)C)cc6[nH]5)cc4c3)[nH]c2c1"
readout_name = "MIC"
quantitative_result = 128


Now consider a different compound.
Data request: Query the reported MIC for Enterococcus faecium; item: `N=C(c1ccc2cc(-c3ccc(-c4cc5ccc(C(=N)N6CC=CCC6)cc5[nH]4)cc3)[nH]c2c1)N1CC=CCC1`
Data returned: 4
